# Tested on: recombinant Amaranthus tuberculatus PPO2 G399A
# Type: biochemical
// assign criterion met if Resistance factor G399A (IC50 mutant / IC50 sensitive PPO2) falls strictly below 4000, else criterion not met (ties count as criterion not met)

Here are 2 compounds together with their reported answers.
[[record]]
compound = "C#CCN(C)c1c(C#N)cnn1-c1nn2c(c1Cl)CCCC2"
class = "criterion met"

[[record]]
compound = "CCOC(=O)COc1cc(-c2nn(C)c(OC(F)F)c2Cl)c(F)cc1Cl"
class = "criterion not met"


-- ask # TODO verify Resistance factor G399A (IC50 mutant / IC50 sensitive PPO2) < 4000 strictly for this compound: C=CCOC(=O)C(C)(C)OC(=O)c1cc(-n2c(=O)cc(C(F)(F)F)n(C)c2=O)ccc1Cl
-- reply criterion met

-- ask # TODO verify Resistance factor G399A (IC50 mutant / IC50 sensitive PPO2) < 4000 strictly for this compound: CCOc1cc(Oc2ccc(C(F)(F)F)cc2Cl)ccc1[N+](=O)[O-]
-- reply criterion not met

-- ask # TODO verify Resistance factor G399A (IC50 mutant / IC50 sensitive PPO2) < 4000 strictly for this compound: Cc1nn(-c2cc(NS(C)(=O)=O)c(Cl)cc2Cl)c(=O)n1C(F)F
-- reply criterion met

-- ask # TODO verify Resistance factor G399A (IC50 mutant / IC50 sensitive PPO2) < 4000 strictly for this compound: CC(C)Oc1cc(-n2nc(C(C)(C)C)oc2=O)c(Cl)cc1Cl
-- reply criterion met

From: paper PMC6530635
